# literature pull: TYRO3 (Homo sapiens) IC50

>  <molecule>
CC(C)C(=O)N1CCC(c2cc(-c3ccc(NC(=O)c4cn(C(C)C)c(=O)n(-c5ccn(C)n5)c4=O)cc3)c3c(N)ncnn23)CC1

>  <IC50>
10 to 100 nM

$$$$
>  <molecule>
COC[C@H](C)Nc1ncc2c(-c3cnn(C(C)(C)C(=O)N4CCC4)c3)cc([C@H]3CC[C@H](O)CC3)n2n1

>  <IC50>
≤ 100 nM

$$$$
>  <molecule>
CCCC(C)Nc1ncc2c(=O)n(C3CCN(C(C)C)CC3)cc([C@H]3CC[C@H](O)CC3)c2n1 (stereo partly drawn)

>  <IC50>
> 10000 nM

$$$$
>  <molecule>
COC[C@H](C)Nc1ncc2c(-c3ccnc(C)c3)cc([C@H]3CC[C@@H](O)CC3)n2n1

>  <IC50>
≤ 100 nM

$$$$
>  <molecule>
CS(=O)(=O)NCC1(c2cccc(-c3ncnc4[nH]ccc34)c2)Cc2ccccc2C1

>  <IC50>
> 3000 nM

$$$$
>  <molecule>
COC[C@H](C)Nc1ncc2c(OC3CCOCC3)ncc(-c3ccc(CO)cc3)c2n1

>  <IC50>
100 to 1000 nM

$$$$
>  <molecule>
CC(C)C(=O)N1CCC(c2cc(-c3ccc(NC(=O)c4cc5c(n(-c6cncc(F)c6)c4=O)CCCC5=O)cc3)c3c(N)ncnn23)CC1

>  <IC50>
10 to 100 nM

$$$$
>  <molecule>
Cc1cc(-c2cc([C@H]3CC[C@H](O)CC3)n3nc(N[C@@H](C)C(F)F)ncc23)ccn1

>  <IC50>
≤ 100 nM

$$$$
>  <molecule>
CCN(C(=O)N1CCN(c2cc(-c3cc([C@H]4CC[C@H](O)CC4)n4nc(N[C@@H](C)COC)ncc34)ccn2)CC1)C(C)C

>  <IC50>
≤ 100 nM

$$$$
>  <molecule>
CC(C)C(=O)N1CCC(c2cc(-c3ccc(NC(=O)c4cn(C(C)C)c(=O)n(-c5ccccc5)c4=O)cc3)c3c(N)ncnn23)CC1

>  <IC50>
10 to 100 nM

$$$$
>  <molecule>
C[C@@H](CC(F)(F)F)Nc1ncc2c(-c3ccnc(N4CCOCC4)c3)cc([C@H]3CC[C@H](O)CC3)n2n1

>  <IC50>
≤ 100 nM

$$$$
>  <molecule>
NCC1(c2ccnc(-c3ncnc4[nH]ccc34)c2)Cc2ccccc2C1

>  <IC50>
> 3000 nM

$$$$
>  <molecule>
NCC1(c2cccc(-c3ncnc4[nH]ccc34)n2)Cc2ccccc2C1

>  <IC50>
> 3000 nM

$$$$
>  <molecule>
CN(C)CC1(c2cccc(-c3ncnc4[nH]ccc34)c2)Cc2ccccc2C1

>  <IC50>
> 3000 nM

$$$$
>  <molecule>
COC[C@H](C)Nc1ncc2c(-c3cnn(C4COC4)c3)cc(-c3cccc(O)c3)n2n1

>  <IC50>
≤ 100 nM

$$$$

###

Here we gather pIC50 data for TYRO3 (Homo sapiens, UniProt Q06418) reported by several publications.
pIC50: −log10 of the molar value.

>  <given.smiles>
Nc1cccc(-c2c[nH]c3ncnc(Oc4ccc(NC(=O)c5cccn(-c6ccc(F)cc6)c5=O)cc4)c23)c1

>  <pIC50>
7.74

$$$$
>  <given.smiles>
CN(C)C(=O)N1CCC(c2cc(-c3ccc(NC(=O)c4cccn(-c5ccc(F)cc5)c4=O)cc3F)c3c(N)ncnn23)CC1

>  <pIC50>
7.00 to 8.00

$$$$
>  <given.smiles>
CCCCNc1ncc2c(OCCOC)ncc([C@H]3CC[C@H](O)CC3)c2n1

>  <pIC50>
5.00 to 6.00

$$$$
>  <given.smiles>
CCC1(Nc2ncc3c(-c4ccc(CN5CCN(C)CC5)cc4)cc([C@H]4CC[C@H](O)CC4)n3n2)CCC1

>  <pIC50>
6.00 to 7.00

$$$$
>  <given.smiles>
CC[C@]1(O)CC[C@@H](c2cc(-c3cnn(C4COC4)c3)c3cnc(N[C@@H](C)COC)nn32)CC1

>  <pIC50>
≥ 7.00

$$$$
>  <given.smiles>
O=C(O)c1ccc(Nc2ncc3c(OC4CCOCC4)ncc([C@H]4CC[C@H](O)CC4)c3n2)cc1

>  <pIC50>
≥ 7.00

$$$$
>  <given.smiles>
COC[C@H](C)Nc1ncc2c(-c3cnn(C(C)(C)C(=O)N4CCC(C)(O)CC4)c3)cc([C@H]3CC[C@H](O)CC3)n2n1

>  <pIC50>
≥ 7.00

$$$$
